experiment: MM1S myeloma cell viability, profiling panel, resazurin fluorescence, basal, 24 h, PK04 Diversity Set (AID 1174); details: higher = more signal, called active from +8 up or from −8 down;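 note: MM1S multiple myeloma cell line; test concentration not given here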
I would appreciate it if you labelled entries MET when z-score is 0.2 or higher, otherwise NOT MET.

>  <MOLECULE>
COC(=O)[C@H](C)NC(=O)CCC1CC(OC(=O)NCc2ccc3c(c2)OCO3)CC2(CCCC(COC(=O)NCCc3ccccc3OC)O2)O1 (some centres not stated)

>  <DISCRETE LABEL>
NOT MET

$$$$
>  <MOLECULE>
CCOC(=O)NN=C1C[C@@H](O)[C@@H](O)[C@@H]2[C@@H]3C(=O)N(c4ccc(F)cc4F)C(=O)[C@@H]3CC[C@@H]12

>  <DISCRETE LABEL>
MET

$$$$

Can COc1ccc(COC(=O)NN=C2C[C@@H](O)[C@@H](O)[C@@H]3[C@@H]4C(=O)N(c5ccc(F)cc5F)C(=O)[C@@H]4CC[C@H]23)cc1 be said to have z-score at or above 0.2? MET

Can CCOC(=O)NN=C1C[C@@H](O)[C@@H](O)[C@@H]2[C@@H]3C(=O)N(c4cccc(Oc5ccccc5)c4)C(=O)[C@@H]3CC[C@@H]12 be said to have z-score at or above 0.2? NOT MET

Can CON=Cc1ccc(C(=O)N2[C@H](c3ccc(C)cc3)[C@@H](C)CC[C@H]2C(=O)OC)cc1 be said to have z-score at or above 0.2? MET

Can CCOC(=O)[C@H](Cc1ccccc1)NC(=O)CCC1CC(OC(=O)NCCc2ccc(F)cc2)CC2(CCCC(COC(=O)NCC3CCCCC3)O2)O1 (some centres not stated) be said to have z-score at or above 0.2? MET

Can Cc1ccc(S(=O)(=O)N[C@H]2COC(=O)CC=C[C@@H](C)COC(=O)CC=C[C@@H]2C)cc1 be said to have z-score at or above 0.2? NOT MET

----------
molecular target: Torsin-1A-interacting protein 1 (Homo sapiens); experiment: LAP1 binders from COS7 cell lysate, primary screen, small-molecule microarray, 635/667 nm fluorescence (AID 1116); settings: COS7-hLAP1 lysate binding, 635 nm fluorescence, higher = more signal
Reported composite z-score values follow for various compounds
When you answer, write just the number.

Completed entries (count: 6):
>  <STRUCTURE NOTATION>
CCOC(=O)NN=C1C[C@@H](O)[C@@H](O)[C@@H]2[C@@H]3C(=O)N(Cc4ccccc4)C(=O)[C@@H]3CC[C@H]12

>  <composite z-score>
-0.273

$$$$
>  <STRUCTURE NOTATION>
Cc1ccc(S(=O)(=O)OC[C@H]2CN3[C@H](c4ccc(Br)cc4)[C@@H](C)CC[C@H]3C(=O)O2)cc1

>  <composite z-score>
0.0859

$$$$
>  <STRUCTURE NOTATION>
COC(=O)[C@@H]1CC[C@H](C)[C@@H](c2ccc(C)cc2)N1C(=O)c1ccc(C=NOCC[C@@H]2C=C[C@H](OC(C)=O)[C@@H](COC(C)=O)O2)cc1

>  <composite z-score>
1.41

$$$$
>  <STRUCTURE NOTATION>
CCOC(=O)NN=C1C[C@@H](O)[C@@H](O)[C@@H]2[C@@H]3C(=O)N(Cc4ccc5c(c4)OCO5)C(=O)[C@@H]3CC[C@H]12

>  <composite z-score>
1.05

$$$$
>  <STRUCTURE NOTATION>
CCCNC(=O)OC[C@H]1O[C@H](CCON=C(C)CCN2CCc3nc(CC)c(CC)cc3C2)C=C[C@@H]1Oc1ccc(OC)cc1

>  <composite z-score>
0.345

$$$$
>  <STRUCTURE NOTATION>
COc1ccc(O[C@H]2C=C[C@@H](c3ccccc3)O[C@@H]2CON=CC[C@@H]2C=C[C@H](OC(C)=O)[C@@H](COC(C)=O)O2)cc1

>  <composite z-score>
0.28

$$$$

Please find the next compound below.
Consider the compound shown here: CC(C)CON=C1C[C@@H](O)[C@@H](O)[C@@H]2[C@@H]3C(=O)N(c4ccc(F)cc4F)C(=O)[C@@H]3CC[C@H]12 What is its recorded composite z-score? 0.272
